biological target: CFH18-20 (human complement factor H CCP18-20) with myc tag and His-tag (human) (UniProt P08603); test: SPR; CFH18-20 (or W1183A) immobilised on a CM5 chip by amine coupling at around 300 RU; VHH4 or its mutants injected as analyte at 30 uL/min; single-cycle kinetics; PBS pH 7.4, Tween 20 (0.005%), 25 °C; Biacore 8K
Sequence (P08603 1046-1231): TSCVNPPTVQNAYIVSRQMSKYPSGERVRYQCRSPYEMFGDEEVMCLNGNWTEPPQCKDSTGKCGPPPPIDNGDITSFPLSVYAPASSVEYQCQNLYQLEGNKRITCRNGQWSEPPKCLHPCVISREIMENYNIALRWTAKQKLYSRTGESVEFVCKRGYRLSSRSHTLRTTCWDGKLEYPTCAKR
Could you please report measured Kd for the items listed next?
Answers are plain numbers, in nM.

Previously resolved entries follow.
[
  {
    "binder": "VHH4 P102A (VHH) VHH: QVQLVESGGGLVQAGGSLRLSCAASGLTVDDYAIGWFRQAPGKEREGVSCISSSNGSTYYADSVKGRFTISSDNAKNTAYLQMNSLKPEDTAVYYCAAAVSANLECGTGPFGIYASYYGMDYWGQGTQVTVSS",
    "reported_property": "Kd",
    "result": 0.219
  },
  {
    "binder": "VHH4 T108A (VHH) VHH: QVQLVESGGGLVQAGGSLRLSCAASGLTVDDYAIGWFRQAPGKEREGVSCISSSNGSTYYADSVKGRFTISSDNAKNTAYLQMNSLKPEDTAVYYCAAAVSPNLECGAGPFGIYASYYGMDYWGQGTQVTVSS",
    "reported_property": "Kd",
    "result": 0.146
  },
  {
    "binder": "VHH4 P110A (VHH) VHH: QVQLVESGGGLVQAGGSLRLSCAASGLTVDDYAIGWFRQAPGKEREGVSCISSSNGSTYYADSVKGRFTISSDNAKNTAYLQMNSLKPEDTAVYYCAAAVSPNLECGTGAFGIYASYYGMDYWGQGTQVTVSS",
    "reported_property": "Kd",
    "result": 0.504
  }
]

--- query ---
Sure, the documented Kd for VHH4 Y117A (VHH) VHH: QVQLVESGGGLVQAGGSLRLSCAASGLTVDDYAIGWFRQAPGKEREGVSCISSSNGSTYYADSVKGRFTISSDNAKNTAYLQMNSLKPEDTAVYYCAAAVSPNLECGTGPFGIYASAYGMDYWGQGTQVTVSS is 0.498

// data source = paper PMC9127587
